The values you see were collected from ChEMBL document CHEMBL1136037.

assay: Toxic concentration against uninfected cells and their ability to generate XTT formazan; type: ADME, cell-based; conditions: read-out: TC50 (the source's name)
measure: CC50 (µM)
Respond with the bare value in µM.

Sample records with CC50:
COc1ccc2sc3c(c2c1)N(Cc1ccc(C)cc1)CCNC3=O | 11
C=CCN1CCNC(=O)c2sc3ccc(OC)cc3c21 | 1.75
COc1ccc2sc3c(c2c1)N[C@H](Cc1ccccc1)CNC3=O | 1.4
COc1cccc(CN2C[C@H](Cc3ccccc3)NC(=O)c3sc4ccc(OC)cc4c32)c1 | 6

# evaluate next
Incoming: If you can, please state the reported CC50 value of `COc1ccc2sc3c(c2c1)N(Cc1ccccc1Cl)CCNC3=O` .
Outgoing: 12

* * *

experiment: Therapeutic index; details: read-out: Therapeutic index
# selectivity ratio annotations

Sample records with selectivity ratio:
COc1ccc2sc3c(c2c1)N(Cc1cccc(Cl)c1)CCNC3=O | 4000
COc1ccc2sc3c(c2c1)N(Cc1ccc([N+](=O)[O-])cc1)CCNC3=O | 500
COc1ccc2sc3c(c2c1)NC[C@H](C(C)C)NC3=O | 67
COc1ccc2sc3c(c2c1)N(Cc1cccc([N+](=O)[O-])c1)CCNC3=O | 6250
COc1ccc2sc3c(c2c1)N[C@@H](Cc1ccccc1)CNC3=O | 110

Incoming: If you can, please state the reported selectivity ratio value of `COc1ccc2sc3c(c2c1)OCCNC3=O` .
Outgoing: 60

Incoming: If you can, please state the reported selectivity ratio value of `COc1ccc2sc3c(c2c1)NC[C@H](Cc1ccccc1)NC3=O` .
Outgoing: 7

Incoming: If you can, please state the reported selectivity ratio value of `COc1ccc2sc3c(c2c1)NC[C@H](C)NC3=O` .
Outgoing: 35

Incoming: If you can, please state the reported selectivity ratio value of `COc1ccc2sc3c(c2c1)N[C@H](C)CNC3=O` .
Outgoing: 54

Incoming: If you can, please state the reported selectivity ratio value of `COc1ccc2sc3c(c2c1)N(Cc1ccc(C)cc1)CCNC3=O` .
Outgoing: 360

Incoming: If you can, please state the reported selectivity ratio value of `COc1ccc2sc3c(c2c1)NC[C@@H](Cc1ccccc1)NC3=O` .
Outgoing: 29

* * *

experiment: Therapeutic index; details: read-out: Therapeutic index
# selectivity ratio annotations
Note: the reply should be a number with no unit written.

Sample records with selectivity ratio:
COc1ccc2sc3c(c2c1)N(Cc1ccc(Cl)cc1)CCNC3=O | 300
COc1ccc(CN2CCNC(=O)c3sc4ccc(OC)cc4c32)cc1 | 830
COc1ccc2sc3c(c2c1)NC[C@H](CC(C)C)NC3=O | 100

Incoming: If you can, please state the reported selectivity ratio value of `COc1ccc2sc3c(c2c1)N(C)CCNC3=O` .
Outgoing: 28

* * *

experiment: Toxic concentration against uninfected cells and their ability to generate XTT formazan; assay type: ADME, cell-based; settings: read-out: TC50 (the source's name)
measure: CC50 (µM)
Respond with the bare value in µM.

COc1ccc2sc3c(c2c1)N(Cc1ccc(Cl)cc1)CCNC3=O | 12
COc1ccc2sc3c(c2c1)NC[C@@H](C(C)C)NC3=O | 3.3
COc1ccc2sc3c(c2c1)N[C@@H](Cc1ccccc1)CNC3=O | 1.1
COc1cccc(CN2C[C@@H](C)NC(=O)c3sc4ccc(OC)cc4c32)c1 | 3.4
COc1ccc(CN2CCNC(=O)c3sc4ccc(OC)cc4c32)cc1 | 10
COc1ccc2sc3c(c2c1)[S+]([O-])CCNC3=O (configuration not stated) | 25.8

Incoming: If you can, please state the reported CC50 value of `COc1ccc2sc3c(c2c1)N[C@H](C)CNC3=O` .
Outgoing: 7

Incoming: If you can, please state the reported CC50 value of `COc1ccc2sc3c(c2c1)N(Cc1cccc(C)c1)CCNC3=O` .
Outgoing: 12
